Reported pIC50 values for a set of compounds
Assay target: hMC-4R (Homo sapiens, UniProt P32245)
Construct: expressed in transfected cells; host or cells: HEK293
Sequence (P32245 whole entry): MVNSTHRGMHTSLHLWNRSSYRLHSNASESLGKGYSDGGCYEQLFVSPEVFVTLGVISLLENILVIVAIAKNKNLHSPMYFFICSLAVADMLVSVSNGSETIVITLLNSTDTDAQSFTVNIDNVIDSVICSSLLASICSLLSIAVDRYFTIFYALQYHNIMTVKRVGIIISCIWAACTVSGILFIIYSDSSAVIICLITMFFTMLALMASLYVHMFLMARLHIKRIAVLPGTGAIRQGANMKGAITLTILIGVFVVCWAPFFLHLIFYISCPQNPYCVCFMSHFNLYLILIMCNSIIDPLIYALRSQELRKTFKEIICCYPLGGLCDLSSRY
Assay text: Membrane binding assay (fluorescence polarization, competition with fluorescence labeled NDP-alpha-MSH)
Please report pIC50 as the negative decimal logarithm of the molar concentration, giving only the number.

Please review the entries below; each comes with its answer.
Structure smiles	Assay target	Readout label	Measured result
CC(C)CCN(CCC(C)C)C(=O)c1cnc2nc(-c3ccc(C#N)cc3)c(CCCN(C)C)n2c1	hMC-4R (Homo sapiens, UniProt P32245)	pIC50	6.00
CC(C)CCN(CCC(C)C)C(=O)c1cnc2nc(-c3ccc(C#N)cc3)c(CCCN3CCCC3)n2c1	hMC-4R (Homo sapiens, UniProt P32245)	pIC50	6.74
CC(C)CCN(CCC(C)C)C(=O)c1cn2c(CCCN3CCCC3)c(-c3ccc(C#N)cc3)nc2cn1	hMC-4R (Homo sapiens, UniProt P32245)	pIC50	7.70

Return reported pIC50; argument: `COc1ccc(Nc2nc3ccc(C(=O)N(CCC(C)C)CCC(C)C)nn3c2CCCN)cc1`
6.31

Origin of the recorded values: patent EP2103614A1
